- EXPERIMENTAL_DETAILS: Drug metabolism in CD-1 mouse active microsomes assessed as CYP450-mediated oxidative phase 1 metabolite formation measured within 30 mins by LC-MS/MS analysis
- Type: ADME
- CONDITION_CONTEXT: 0.5 h
METRIC_NAME: Drug metabolism

// worked examples, Drug metabolism included
LINE_NOTATION	Drug metabolism
CC(=O)Nc1ccc2c(-c3cc(F)ccc3O)ccnc2c1O	Metabolite_Detected
O=C(CCN1CCOCC1)Nc1ccc2c(-c3cc4ccccc4o3)ccnc2c1O	Metabolite_Notdetected
CC(=O)Nc1ccc(-c2ccnc3c(O)c(NC(C)=O)ccc23)cc1	Metabolite_Notdetected
CC(=O)Nc1ccc2c(-c3cccc(C(F)(F)F)c3)ccnc2c1O	Metabolite_Notdetected
CC(=O)Nc1ccc2c(-c3ccsc3)ccnc2c1O	Metabolite_Detected

### Prompt Provide one value: measured Drug metabolism of `O=C(CN1CCOCC1)Nc1ccc2c(-c3cc4ccccc4o3)ccnc2c1O`
### Response Metabolite_Notdetected

### Prompt Provide one value: measured Drug metabolism of `CC(=O)Nc1ccc2c(-c3cc4ccccc4o3)ccnc2c1O`
### Response Metabolite_Notdetected

### Prompt Provide one value: measured Drug metabolism of `COc1cc(NC(C)=O)c(O)c2nccc(-c3ccccc3NC(=O)c3ccccc3)c12`
### Response Metabolite_Detected

====

- Tested on: Mus musculus
- EXPERIMENTAL_DETAILS: Apparent volume of drug distribution in CD-1 mouse at 50 mg/kg, ip by LC-MS/MS analysis
- Type: ADME, organism-based
- CONDITION_CONTEXT: in vivo
METRIC_NAME: Vz (L/kg)
Report the figure in L/kg without appending any unit label.

// worked examples, Vz included
LINE_NOTATION	OBSERVED_MEASUREMENT
O=C(CCN1CCOCC1)Nc1ccc2c(-c3cc4ccccc4o3)ccnc2c1O	32
CC(=O)Nc1ccc2c(-c3cc(F)ccc3O)ccnc2c1O	10.9
CC(=O)Nc1ccc2c(-c3cc4ccccc4o3)ccnc2c1O	108.9
O=C(CCN1CCOCC1)Nc1ccc2c(-c3cc(F)ccc3O)ccnc2c1O	34

// switching to the query compound
### Prompt Provide one value: measured Vz of `O=C(CN1CCOCC1)Nc1ccc2c(-c3cc4ccccc4o3)ccnc2c1O`
### Response 69.3

====

- EXPERIMENTAL_DETAILS: Half life of terminal disposition phase in CD-1 mouse at 50 mg/kg, ip by LC-MS/MS analysis
- Assay type: ADME, organism-based
- CONDITION_CONTEXT: in vivo, read-out: t1/2lambda (converted)
Assign labels as follows, please: condition met for half-life below 6 h; condition not met for half-life equal to or exceeding 6 h.

LINE_NOTATION	CATEGORY_LABEL
O=C(CCN1CCOCC1)Nc1ccc2c(-c3cc(F)ccc3O)ccnc2c1O	condition not met

### Prompt Could you please tell me whether half-life recorded for `CC(=O)Nc1ccc2c(-c3cc(F)ccc3O)ccnc2c1O` is less than 6 h?
### Response condition met

### Prompt Could you please tell me whether half-life recorded for `CC(=O)Nc1ccc2c(-c3cc4ccccc4o3)ccnc2c1O` is less than 6 h?
### Response condition met

====

- EXPERIMENTAL_DETAILS: AUC(0 to t) in CD-1 mouse at 50 mg/kg, ip by LC-MS/MS analysis
- Assay type: ADME, organism-based
- CONDITION_CONTEXT: in vivo
METRIC_NAME: AUC(0-t)
Dear colleague, please send the value followed by its unit.

// worked examples, AUC(0-t) included
LINE_NOTATION	OBSERVED_MEASUREMENT
O=C(CCN1CCOCC1)Nc1ccc2c(-c3cc(F)ccc3O)ccnc2c1O	13000 ng·h/mL
CC(=O)Nc1ccc2c(-c3cc(F)ccc3O)ccnc2c1O	12500 ng·h/mL
O=C(CN1CCOCC1)Nc1ccc2c(-c3cc4ccccc4o3)ccnc2c1O	5890 ng·h/mL
O=C(CCN1CCOCC1)Nc1ccc2c(-c3cc4ccccc4o3)ccnc2c1O	12900 ng·h/mL

// switching to the query compound
### Prompt Provide one value: measured AUC(0-t) of `CC(=O)Nc1ccc2c(-c3cc4ccccc4o3)ccnc2c1O`
### Response 2840 ng·h/mL

Cited source for all entries: ChEMBL document CHEMBL4321838
